- Test system: SK-MEL-2 melanoma
- Protocol Details: NCI-60 one-dose screen, 48 h
- Test Settings: 10 µM unless noted
The panel holds about 83,000 compounds, 20% with a hit somewhere; the sample as a whole holds those more often. Active and inactive are the calls of the source. The calls were made as follows: active = growth percent below 10; inactive = the rest.
Outcomes: Y for active, N for inactive

>>> group_label("COc1ccc(/C=C2\\Oc3cc(OCCCN4CCCC4)ccc3C2=O)c(OC)c1")
"N"
>>> group_label("O=C(Nc1cccc(-n2cc(-c3ccncc3)c(-c3ccc(Cl)c(O)c3)n2)c1)Nc1cccc(C(F)(F)F)c1")
"Y"
>>> group_label("CCOc1cc2c(Cl)ncnc2c(OCC)c1OCC")
"N"
>>> group_label("S=C1CC(=S)NC(=S)N1")
"N"
>>> group_label("COc1ccc(-n2c(-c3ccccc3)c(-c3ccccc3)c3c(SCC(=O)N/N=C/c4ccc(Cl)cc4)ncnc32)cc1")
"N"
>>> group_label("Cc1ccc(-c2csc(NC(=O)CCCCl)n2)cc1")
"N"
>>> group_label("C=C[C@@H]1C[C@H](O)Cc2ccccc2N1")
"N"
>>> group_label("COc1cc(Nc2nc(N[C@H]3CCCC[C@@H]3N)nc3cc[nH]c(=O)c23)cc(OC)c1")
"N"
>>> group_label("COc1ccc(-n2c(=O)sc3c(Cl)nc(C)nc32)c(OC)c1")
"N"
>>> group_label("COc1ccc(-c2nc(SCCC(C)C)nc(Nc3ccc(F)c(Cl)c3)c2C#N)cc1")
"N"
>>> group_label("CC(=O)Oc1csc(N(C(C)=O)c2cccc(C(F)(F)F)c2)n1")
"N"

* * *

Reported growth values are given for each entry in this list.
- Tested on: ACHN renal
- Protocol Details: NCI-60 one-dose screen, 48 h (100 = growth as untreated, 0 = no growth, -100 = all killed)
- Test Settings: 10 µM unless noted
About 83,000 compounds went through this panel and 20% of them were active in at least one assay; those are over-represented in the sample as a whole.
Measured Metric: growth (%)

>>> val("COc1cc(-c2ncn(/C=C\\C(=O)OC(C)C)n2)cc(C(F)(F)F)c1")
11.5
>>> val("COc1ccc(-c2nc(-c3nc4cc(C)c(C)cc4[nH]3)cc3c2[nH]c2ccccc23)cc1")
39.6
>>> val("COc1ccc(/C=C2\\CN(Cc3cn(CCNc4ccnc5cc(Cl)ccc45)nn3)C/C(=C\\c3ccc(OC)c(OC)c3)C2=O)cc1OC")
51.4
>>> val("O=C(NNC(=O)N1c2ccccc2C=Cc2ccccc21)c1ccccc1")
102
>>> val("CC12CCCC(CC(=O)c3[nH]c4ccccc4c31)C2 (stereo not given)")
52.6
>>> val("c1cc(C2=N[C@@H]3c4ccccc4C[C@@H]3O2)nc(C2=N[C@@H]3c4ccccc4C[C@@H]3O2)c1")
102
>>> val("C=C(C)[C@@H]1C[C@@H]2Cc3cc(F)ccc3N1O2")
95.4
>>> val("O=C1c2ccccc2-c2ccccc2C1(Cl)Cl")
-67
>>> val("COc1cc(NC(=O)SC2=NCCS2)cc(OC)c1")
102
>>> val("COc1cc(-c2nn(-c3cccc(NC(=O)Nc4ccc(Cl)c(C(F)(F)F)c4)c3)cc2-c2ccncc2)ccc1Cl")
9.33

* * *

- Tested on: PC-3 prostate
- Protocol Details: NCI-60 one-dose screen, 48 h
- Test Settings: 10 µM unless noted
- Description: Growth inhibition of the PC-3 human tumor cell line is measured as a screen for anti-cancer activity. Cells are grown in 96 well plates and exposed to the test compound for 48 hours. Compounds are tested at a single concentration, which is 10^-5 M for most compounds. The reported endpoint is percent growth (GI% or GIPRCNT), where numbers from 0 - 100% represent growth inhibition, and numbers from -100% - 0 represent cell death. For example, a value of 40 represents 60% growth inhibition. […]
Compounds without any hit were thinned out: in the full panel of roughly 83,000, 20% have a hit. The source made the active and inactive calls. The calls were made as follows: active = growth percent below 10; inactive = the rest.
Classes used: T (active), F (inactive)

>>> group_label("NC(=S)N/N=C(/CCN1CCCC1)CC(C1=C(O)C2=CCCCC2OC1=O)c1ccccc1 (stereo not drawn)")
"F"
>>> group_label("S=c1[nH]nc(-c2cc3ccc2CCc2ccc(cc2)CC3)n1C1CC1")
"F"
>>> group_label("Brc1cccc(-c2cc(-c3ccc4c(c3)OCCCO4)[nH]n2)c1")
"F"
>>> group_label("COc1cc(-c2nc(-c3nc4ccc(Cl)cc4[nH]3)cc3c2[nH]c2ccccc23)cc(OC)c1OC")
"F"
>>> group_label("COP(=O)(OC)/C(=N\\NS(=O)(=O)c1ccc(C)cc1)c1ccccc1")
"F"
>>> group_label("COc1cc(C2C3=C(COC3=O)Nc3cc4c(cc32)CCC4)cc2c1OCO2 (stereo not drawn)")
"F"
>>> group_label("O=C(Nc1cccc(-n2cc(-c3ccncc3)c(-c3ccc(Cl)c(O)c3)n2)c1)Nc1ccc(Cl)c(Cl)c1")
"T"
>>> group_label("CN(C)CCCC(C#N)c1ccccc1 (stereo not drawn)")
"F"
>>> group_label("CN(C)c1oc(C2OC2c2ccccc2)nc1C#N (stereo not drawn)")
"F"
>>> group_label("C=C[C@@H]1C[C@@H]2Cc3ccccc3N1O2")
"F"
>>> group_label("CNC(=S)NNC(=O)C1CC1")
"F"
>>> group_label("COc1ccc(C(=O)c2cc(OC)c3c(c2)OCO3)cc1O")
"F"
>>> group_label("CCOC(=O)C1=C(C)NC(C)=C(C(=O)OCC)C1(C)C")
"F"
>>> group_label("O=S(=O)(NCCNc1nccc(-c2c(-c3cccc(O)c3)nc3sccn23)n1)c1ccc(F)cc1")
"F"
>>> group_label("COc1ccc(C2NN=C3c4ccccc4CCC32)cc1 (stereo not drawn)")
"F"
>>> group_label("CCCCCCN1CSC(=S)N(CCCCCC)C1")
"F"
>>> group_label("Cc1ccc(/C=C2\\CN(C(=O)CCN3CCC(=NO)CC3)C/C(=C\\c3ccc(C)cc3)C2=O)cc1")
"F"
>>> group_label("O=C(O)COc1ccc(-c2cssc2=S)cc1")
"F"
>>> group_label("O=C(NCc1cn(Cc2cccc(Oc3ccccc3)c2)nn1)c1cccnc1Nc1ccc(F)cc1")
"F"
>>> group_label("O=S(=O)(NCCCNc1nccc(-n2ccc3cccnc32)n1)c1ccc(Br)cc1")
"F"
>>> group_label("COc1ccc2c(c1)[nH]c(=O)c1c3cc(C)c(C)cc3cn21")
"T"
>>> group_label("Cc1cc(C(C)(C)C)ccc1S")
"F"
>>> group_label("N/C(=N\\S(=O)(=O)c1ccccc1)Nc1nc2ccccc2s1")
"F"

* * *

- Tested on: NCI/ADR-RES ovarian
- Protocol Details: NCI-60 one-dose screen, 48 h (100 = growth as untreated, 0 = no growth, -100 = all killed)
- Test Settings: 10 µM unless noted
Compounds without any hit were thinned out: in the full panel of roughly 83,000, 20% have a hit. Activity calls are given as the source filed them. How the source made its calls: active means growth percent below 10; inactive means the rest.
Measured Metric: growth

>>> val("COc1cc(-c2nn(C(=O)NS(=O)(=O)c3ccccc3)cc2-c2ccncc2)ccc1Cl")
"82.3% (inactive)"
>>> val("CN1CCN(Cc2ccc(NC(=O)c3cncc(C#Cc4cnc(N)c5cnccc45)c3)cc2C(F)(F)F)CC1")
"65.9% (inactive)"
>>> val("CCCCOc1ccc(/C=C2/SC(N3CCOCC3)=NC2=O)cc1OCC")
"94.5% (inactive)"
>>> val("C=C1C(=O)O[C@H]2[C@H]1CC/C(Cn1cc(CNC(=O)/C=C/c3c[nH]c4ccccc34)nn1)=C\\CC[C@@]1(C)O[C@@H]21")
"108% (inactive)"
>>> val("C=C(C)[C@@H]1C[C@@H]2Cc3cc(Cl)ccc3N1O2")
"100% (inactive)"
>>> val("Cc1ccc(-c2nc(C#N)c(S(=O)(=O)n3nc(-c4ccccc4)cc3N)o2)cc1")
"94.9% (inactive)"
>>> val("Nc1cc2c([nH]c[n+]2CC#CCCl)c(SCC#CCCl)n1")
"-24.2% (active)"
>>> val("COc1ccc(S(=O)(=O)NCCCNc2nccc(-n3ccc4cccnc43)n2)cc1")
"91.1% (inactive)"
>>> val("C=C1CCC2C3(C)COC(c4ccccc4)OC3CCC2(C)C1/C=C/C1=CCOC1=O (stereo unspecified)")
"26.2% (inactive)"
>>> val("CCN(CC)c1ccc(CNc2ccnc3ccccc23)cc1")
"40% (inactive)"
>>> val("Cc1cc(N)n(S(=O)(=O)c2oc(-c3ccccc3)nc2C#N)n1")
"100% (inactive)"
>>> val("O=[N+]([O-])c1ccc(/C=C/C2(CCl)OCCO2)cc1")
"98.8% (inactive)"
>>> val("CCc1cnc(=S)n(-c2ccccc2)c1")
"98.3% (inactive)"
>>> val("CCOC(=O)C1=C(C)NC(C)=C(C(=O)OCC)C1(C)C")
"122% (inactive)"
>>> val("COc1ccc(/C=C(\\C#N)c2cc(OC)c3c(c2)OCO3)cc1")
"7.74% (active)"
>>> val("Cn1c(=O)cc(NC(=O)CN2CCN(c3cc4c(cc3F)c(=O)c(C(=O)O)cn4C3CC3)CC2)[nH]c1=O")
"98.1% (inactive)"
>>> val("N=C(N)c1ccc(-c2ccc(-c3ccc(-c4cccs4)s3)s2)cc1")
"98.6% (inactive)"
>>> val("CC(C)C1=CC2=C(C=O)C[C@@H]3[C@](C)(CCC[C@@]3(C)C(=O)OCC#CCN3CCCC3)[C@H]2CC1")
"82.2% (inactive)"
>>> val("c1ccc(-c2nc(N3CCNCC3)c3nc(-c4ccccc4)oc3n2)cc1")
"-69.2% (active)"
>>> val("O=C1C(Cl)=C(Nc2ccccn2)C(=O)c2ccccc21")
"34.9% (inactive)"
>>> val("NC1=C(/C(N)=N/O)C(c2ccccc2)c2ccc3ccccc3c2O1 (stereo unspecified)")
"-1.33% (active)"
